Consider the following molecules and their measured IC50 readings.
Experimental System: Kras and SOS1 (biotin-tagged human Kras loaded with GDP, His-tagged human SOS1) (Homo sapiens, UniProt P01116, G12D)
Construct: made in house; host or cells: E. coli (stated for Kras only)
Sequence (P01116 1-188 isoform P01116-2 G12D): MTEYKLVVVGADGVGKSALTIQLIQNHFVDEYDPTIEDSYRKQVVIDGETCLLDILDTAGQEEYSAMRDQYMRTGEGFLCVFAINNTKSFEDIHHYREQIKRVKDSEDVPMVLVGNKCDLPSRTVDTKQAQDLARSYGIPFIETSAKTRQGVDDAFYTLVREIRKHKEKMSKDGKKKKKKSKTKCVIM
Method Summary: Protein-protein interaction inhibition between Kras and SOS1 (KrasGl2D-SOS PPI) using AlphaScreen
Type: binding
Setup Conditions: AlphaScreen; biotin-tagged human Kras loaded with GDP, His-tagged human SOS1; read-out: KRAS G12D-SOS PPI IC50
Starred links: 1 amine or outer side, 2 acyl side, 3 side chain; linkers in the order of their positions; H or OH if unused. Positions of bridges follow the written chain, without caps; N, C: chain ends. Non-standard residues stand in square brackets, D forms with d. Residues, ends and D or L forms follow the SMILES beside them. *: point of attachment. hPhe(3-Cl-4-CF3) = N[C@@H](CCc1ccc(C(F)(F)F)c(Cl)c1)C(=O)O; hPhe(3-F,4-CF3) = N[C@@H](CCc1ccc(C(F)(F)F)c(F)c1)C(=O)O; X23 = CN([C@@H](Cc1ccccc1OC(F)(F)F)C(=O)[*:2])[*:1]; hPhe(4-CF3) = N[C@@H](CCc1ccc(C(F)(F)F)cc1)C(=O)O; NMePhe(4-Cl) = CN[C@@H](Cc1ccc(Cl)cc1)C(=O)O; NMePhe(4-Me) = CN[C@@H](Cc1ccc(C)cc1)C(=O)O; NMePhe(4-I) = CN[C@@H](Cc1ccc(I)cc1)C(=O)O; NMePhe(2-Me) = CN[C@@H](Cc1ccccc1C)C(=O)O; NMeGly(cPent) = CN[C@H](C(=O)O)C1CCCC1; Phe(3-I) = N[C@@H](Cc1cccc(I)c1)C(=O)O; NMeY = CN[C@@H](Cc1ccc(O)cc1)C(=O)O; NMeCha = CN[C@@H](CC1CCCCC1)C(=O)O; NMeChg = CN[C@H](C(=O)O)C1CCCCC1; N(CH2CH2)2CF2 = FC1(F)CCN(*)CC1; NMeD = CN[C@@H](CC(=O)O)C(=O)O; NMeHpra = C#CCC[C@H](NC)C(=O)O; CH2CONHtBu = CC(C)(C)NC(=O)C*; NMeL = CN[C@@H](CC(C)C)C(=O)O; NMeV = CN[C@H](C(=O)O)C(C)C; d(β3hA) = C[C@@H](N)CC(=O)O; NMeS = CN[C@@H](CO)C(=O)O; Morpholide = C1CN(*)CCO1; NMeA = CN[C@@H](C)C(=O)O; NMeAib = CNC(C)(C)C(=O)O; Piperidide = C1CCN(*)CC1; Pra = C#CC[C@H](N)C(=O)O; Ac5c = NC1(C(=O)O)CCCC1; Aze = O=C(O)[C@@H]1CCN1; Ac4c = NC1(C(=O)O)CCC1; Aib = CC(C)(N)C(=O)O; Isopentyl = CC(C)CC*; CF3 = FC(F)(F)*; Sar = CNCC(=O)O
Give the number; nM is assumed, so skip it.

molecule="CC[C@H](C)[C@@H]1NC(=O)[C@H](CC(C)C)N(C)C(=O)C[C@@H](C(=O)N2CCCCC2)N(C)C(=O)[C@H](C(C)C)N(C)C(=O)C2(CCCC2)NC(=O)[C@@H]2CCCN2C(=O)[C@H](CCc2ccc(C(F)(F)F)c(Cl)c2)NC(=O)CN(C)C(=O)[C@H](Cc2ccccc2OC(F)(F)F)N(C)C(=O)CN(C)C(=O)CN(C)C1=O [Compound 1641] ([NMeL]I[Sar][Sar][X23][Sar][hPhe(3-Cl-4-CF3)]P[Ac5c][NMeV][NMeD]-Piperidide; lactam N-11)" measure_name=IC50 unit_symbol=nM observed=8.3
molecule="CC[C@H](C)[C@@H]1NC(=O)[C@H](CC(C)C)N(C)C(=O)C[C@@H](C(=O)N2CCCCC2)N(C)C(=O)[C@H](CC(C)C)N(C)C(=O)C(C)(C)NC(=O)[C@H](COCC(=O)NC(C)(C)C)N(C)C(=O)[C@H](CCc2ccc(C(F)(F)F)cc2)NC(=O)CN(C)C(=O)[C@H](COCCC(C)C)N(C)C(=O)CN(C)C(=O)CN(C)C1=O [Compound 1502] ([NMeL]I[Sar][Sar][NMeS](Isopentyl)[Sar][hPhe(4-CF3)][NMeS](CH2CONHtBu)[Aib][NMeL][NMeD]-Piperidide; lactam N-11)" measure_name=IC50 unit_symbol=nM observed=24

Consider the molecule shown here: CC[C@H](C)[C@@H]1NC(=O)[C@H](CC(C)C)N(C)C(=O)C[C@@H](C(=O)N2CCCCC2)N(C)C(=O)[C@H](C2CCCCC2)N(C)C(=O)C2(CCC2)NC(=O)[C@@H]2CCCN2C(=O)[C@H](CCc2ccc(C(F)(F)F)c(Cl)c2)NC(=O)CN(C)C(=O)[C@H](CC2CCCCC2)N(C)C(=O)CN(C)C(=O)CN(C)C1=O [Compound 1821] ([NMeL]I[Sar][Sar][NMeCha][Sar][hPhe(3-Cl-4-CF3)]P[Ac4c][NMeChg][NMeD]-Piperidide; lactam N-11) What is its recorded IC50?
0.99

Consider the molecule shown here: CC[C@H](C)[C@@H]1NC(=O)[C@H](CC(C)C)N(C)C(=O)C[C@@H](C(=O)N2CCOCC2)N(C)C(=O)[C@H](C2CCCC2)N(C)C(=O)C2(CCCC2)NC(=O)[C@H](CC(=O)N2CCC(F)(F)CC2)N(C)C(=O)[C@H](CCc2ccc(C(F)(F)F)c(Cl)c2)NC(=O)CN(C)C(=O)[C@H](CC2CCCCC2)N(C)C(=O)[C@@H]2CCN2C(=O)[C@H](C)N(C)C1=O [Compound 105] ([NMeL]I[NMeA][Aze][NMeCha][Sar][hPhe(3-Cl-4-CF3)][NMeD](N(CH2CH2)2CF2)[Ac5c][NMeGly(cPent)][NMeD]-Morpholide; lactam N-11) What is its recorded IC50?
5.3

Consider the molecule shown here: C#CC[C@@H]1NC(=O)[C@H](Cc2cccc(I)c2)NC(=O)CN(C)C(=O)[C@H](Cc2ccc(OC(F)(F)F)cc2)N(C)C(=O)CN(C)C(=O)CN(C)C(=O)[C@H]([C@@H](C)CC)NC(=O)[C@H](CC(C)C)N(C)C(=O)C[C@@H](C(=O)N2CCCCC2)N(C)C(=O)[C@H](CC(C)C)NC(=O)C(C)(C)N(C)C1=O [Compound 1219] ([NMeL]I[Sar][Sar][NMeY](CF3)[Sar][Phe(3-I)][Pra][NMeAib]L[NMeD]-Piperidide; lactam N-11) What is its recorded IC50?
16

Consider the molecule shown here: CC[C@H](C)[C@@H]1NC(=O)[C@H](CC(C)C)N(C)C(=O)C[C@@H](C(=O)N2CCCCC2)N(C)C(=O)[C@H](CC(C)C)N(C)C(=O)C2(CCCC2)NC(=O)[C@@H]2CCCN2C(=O)[C@H](CCc2ccc(C(F)(F)F)c(F)c2)NC(=O)CN(C)C(=O)[C@H](Cc2ccc(Cl)cc2)N(C)C(=O)CN(C)C(=O)CN(C)C1=O [Compound 1061] ([NMeL]I[Sar][Sar][NMePhe(4-Cl)][Sar][hPhe(3-F,4-CF3)]P[Ac5c][NMeL][NMeD]-Piperidide; lactam N-11) What is its recorded IC50?
14

Consider the molecule shown here: C#CCC[C@H]1C(=O)N[C@@H]([C@@H](C)CC)C(=O)N(C)CC(=O)N(C)CC(=O)N(C)[C@@H](Cc2ccc(I)cc2)C(=O)N(C)CC(=O)N[C@@H](CCc2ccc(C(F)(F)F)c(Cl)c2)C(=O)N2CCC[C@H]2C(=O)NC2(CCCC2)C(=O)N(C)[C@@H](C2CCCCC2)C(=O)N[C@H](C)CC(=O)N1C [Compound 300] (cyclo([Ac5c][NMeChg][d(β3hA)][NMeHpra]I[Sar][Sar][NMePhe(4-I)][Sar][hPhe(3-Cl-4-CF3)]P)) What is its recorded IC50?
9.5

Consider the molecule shown here: CC[C@H](C)[C@@H]1NC(=O)[C@H](CC(C)C)N(C)C(=O)C[C@@H](C(=O)N2CCCCC2)N(C)C(=O)[C@H](C(C)C)N(C)C(=O)C2(CCCC2)NC(=O)[C@@H]2CCCN2C(=O)[C@H](CCc2ccc(C(F)(F)F)c(Cl)c2)NC(=O)CN(C)C(=O)[C@H](Cc2ccccc2C)N(C)C(=O)CN(C)C(=O)CN(C)C1=O [Compound 1584] ([NMeL]I[Sar][Sar][NMePhe(2-Me)][Sar][hPhe(3-Cl-4-CF3)]P[Ac5c][NMeV][NMeD]-Piperidide; lactam N-11) What is its recorded IC50?
9.5

Consider the molecule shown here: CC[C@H](C)[C@@H]1NC(=O)[C@H](CC(C)C)N(C)C(=O)C[C@@H](C(=O)N2CCOCC2)N(C)C(=O)[C@H](C2CCCCC2)N(C)C(=O)C2(CCCC2)NC(=O)[C@@H]2CCCN2C(=O)[C@H](CCc2ccc(C(F)(F)F)c(Cl)c2)NC(=O)CN(C)C(=O)[C@H](Cc2ccc(C)cc2)N(C)C(=O)CN(C)C(=O)CN(C)C1=O [Compound 1872] ([NMeL]I[Sar][Sar][NMePhe(4-Me)][Sar][hPhe(3-Cl-4-CF3)]P[Ac5c][NMeChg][NMeD]-Morpholide; lactam N-11) What is its recorded IC50?
0.65
